Assay: Bioavailability in rats, blood levels by HPLC
Assay type: in vivo
Settings: rat, oral gavage, 50 mg/kg single dose, 2h, whole blood
reported.property: concentration at 2 h (nM)
Provide only the numeric value, understood in nM.

GET /values?readout=concentration at 2 h&item= COc1cc(C(=O)C(=O)N2CCCC[C@H]2C(=O)OC(CCCc2ccccc2)CCCc2ccccn2)cc(OC)c1OC (stereo partly shown) [Compound 20]
2000

###

Assay: Bioavailability in rats, blood levels by HPLC
Assay type: in vivo
Settings: rat, oral gavage, 50 mg/kg single dose, 4h, whole blood
reported.property: concentration at 4 h (µM)
Provide only the numeric value, understood in µM.

GET /values?readout=concentration at 4 h&item= COc1cc(C(=O)C(=O)N2CCCC[C@H]2C(=O)OC(CCCc2ccccc2)CCCc2ccccn2)cc(OC)c1OC (stereo partly shown)
12

###

Quick list: IC50 per entry.
Tested on: PBLs stimulated with JVM human viral-transformed B lymphoblastoid cell line
Experiment: MLR bioassay, PBLs stimulated with JVM cells
Format: cell-based
Settings: mixed lymphocyte reaction, JVM stimulator cells, inhibition of proliferation, read-out: JVM

GET /values?readout=IC50&item= COc1cc(C(=O)C(=O)N2CCCC[C@H]2C(=O)OC(CCCCCc2ccccc2)CCCc2ccccc2)cc(OC)c1OC (some centres unmarked)
10 µM

More entries:
GET /values?readout=IC50&item= C=CCOc1cccc(C(=O)C(=O)N2CCCC[C@H]2C(=O)OC(CCCc2ccccc2)CCCc2cccnc2)c1 (some centres unmarked)
9 µM

GET /values?readout=IC50&item= O=C(C(=O)N1CCCC[C@H]1C(=O)OC(CCCc1ccccc1)CCCc1ccccn1)c1ccccc1 (some centres unmarked)
10 µM

GET /values?readout=IC50&item= COc1cc(C(=O)C(=O)N2CCCC[C@H]2C(=O)OC(CCCc2ccccc2)c2ccccc2O)cc(OC)c1OC (some centres unmarked)
> 10 µM

GET /values?readout=IC50&item= COc1cc(C(=O)C(=O)N2CCCC[C@H]2C(=O)OC(CCCc2ccccc2)Cc2ccccc2)cc(OC)c1OC (some centres unmarked)
8 µM
